FYI, the data here is from patent US20250332173A1.

# System: HTT mRNA
# measurement-notes: RT-qPCR splicing assay, HTT canonical junction (CJ) and alternative junction (AJ) mRNA
# Assay type: cell-based, human
# measurement-conditions: Homo sapiens, increase in HTT alternative junction (AJ) mRNA, RT-qPCR; read-out: HTT AJ AC50
Structures can show the parent of a compound that is named as a salt.
quantity-kind: AC50

INSERT INTO assay_data (compound, quantity_kind, result) VALUES
  ('Cc1cc(-c2ccc3c(=O)n(C4CCNCC4)c(C)nc3c2)cc2cn(C)nc12', 'AC50', '> 10 µM'),
  ('CN1CCN(c2ccc3ncn(-c4cc(F)c5nn(C)cc5c4)c(=O)c3c2)CC1', 'AC50', '1 to 10 µM'),
  ('Cc1nc2c(C)cc(-c3cc(F)c4c(=O)n(C5CCNC6(CC6)C5)ccc4c3)cc2o1 (stereo not drawn)', 'AC50', '< 0.1 µM'),
  ('COc1cc(-c2ccc3c(=O)n(C4CCNCC4)ccc3c2)nn2cc(C)nc12 [Compound 514, hydrochloride]', 'AC50', '< 0.1 µM'),
  ('Cc1c(O)c(-c2ncc3c(=O)n(C4CCC(N)CC4)ccc3n2)cc2cn(C)nc12 (stereo not drawn)', 'AC50', '0.1 to 1 µM'),
  ('Cc1cn2cc(-c3ccc4c(=O)n(C5CCNC5)ccc4n3)c(O)c(C)c2n1 (stereo not drawn)', 'AC50', '> 10 µM');

====

# System: HTT mRNA
# measurement-notes: RT-qPCR splicing assay, HTT canonical junction (CJ) and alternative junction (AJ) mRNA
# Assay type: cell-based, human
# measurement-conditions: Homo sapiens, increase in HTT alternative junction (AJ) mRNA, RT-qPCR; read-out: HTT AJ AC50
quantity-kind: AC50

INSERT INTO measurements (molecule_smiles, result) VALUES
  ('Cc1cn2nc(-c3ccc4c(=O)n(C5CCNCC5)ccc4c3)cc(CCO)c2n1', '0.1 to 1 µM'),
  ('Cc1cn2nc(-c3ccc4c(=O)n([C@H]5CCNC6(CCC6)C5)ccc4n3)cc(C)c2n1', '0.1 to 1 µM'),
  ('Cc1cn2nc(-c3ccc4c(=O)n(C5CCNCC5)ncc4c3)nc2c(C)n1', '0.1 to 1 µM'),
  ('CNc1cc(-c2cc(C)c3nc(C)cn3n2)cc2ccn([C@H]3CCNC3)c(=O)c12', '1 to 10 µM'),
  ('Cn1cc2cc(-n3cnc4cc(NC5CCNCC5)ccc4c3=O)ccc2n1', '> 10 µM');

====

# Tested on: HTT mRNA
# measurement-notes: RT-qPCR splicing assay, HTT canonical junction (CJ) and alternative junction (AJ) mRNA
# Format: cell-based, human
# measurement-conditions: Homo sapiens, decrease in HTT canonical junction (CJ) mRNA, RT-qPCR; read-out: HTT CJ IC50
quantity-kind: IC50

INSERT INTO assay_data (compound, result) VALUES
  ('Cc1cn2cc(-c3ccc4c(=O)n(C5CCNCC5)cc(C)c4c3)cc(F)c2n1 [Compound 440]', '100 to 1000 nM'),
  ('CNCCn1ncc2cc(-c3cc(C)c4nc(C)cn4n3)ccc2c1=O [Compound 472]', '100 to 1000 nM'),
  ('Cc1cn2nc(-c3ccc4c(=O)n([C@H]5CCNC6(CC6)C5)ncc4c3)cc(C)c2n1 [Compound 369]', '< 100 nM'),
  ('Cc1c(O)c(-c2ncc3c(=O)n([C@@H]4CC[C@H](N)C4)ccc3n2)cc2cn(C)nc12 [Compound 1477]', '100 to 1000 nM'),
  ('Cc1cn2cc(-c3cc(F)c4c(=O)n(C5CCNC6(CC6)C5)ccc4c3)cc(F)c2n1 (stereo not drawn) [Compound 471]', '> 10000 nM'),
  ('Cn1cc2cc(-c3ccc4c(=O)n(C5CCNCC5)cnc4c3)ccc2n1 [Compound 182]', '1000 to 10000 nM');

====

# Tested on: HTT
# measurement-notes: HiBiT protein abundance assay, HTT HiBiT K562 cell line
# Assay type: cell-based, human
# measurement-conditions: HiBiT K562 cell line, 24 hours, top dose 10 μM; read-out: Effect on protein abundance, HTT (IC50 category)
quantity-kind: IC50

INSERT INTO measurements (compound, quantity_kind, result) VALUES
  ('Cc1c(O)c(-c2ncc3c(=O)n(N4CCNCC4)ccc3n2)cc2cn(C)nc12 [Compound 1303]', 'IC50', '100 to 1000 nM'),
  ('Cc1cn2cc(-c3ccc4c(=O)n([C@H]5CCN[C@H](C)C5)cnc4c3)cc(F)c2n1 [Compound 296]', 'IC50', '100 to 1000 nM'),
  ('O=c1c2c(F)cc(-c3cn[nH]c3)cc2ncn1C1CCNCC1 [Compound 321]', 'IC50', '> 10000 nM'),
  ('Cc1cn2nc(-c3ccc4c(=O)n([C@@H]5CCNC6(CC6)C5)ncc4c3)cc(C)c2n1 (stereo in doubt) [Compound 368]', 'IC50', '< 100 nM'),
  ('Cc1cc(-c2cc(F)c3c(=O)n(C4CCNC5(CC5)C4)cnc3c2)nc2cn(C)nc12 (centres unmarked) [Compound 361]', 'IC50', '< 100 nM'),
  ('Cc1cn2nc(-c3ccc4c(=O)n(C5CCNCC5)ccc4c3)cc(C(=O)N(C)C)c2n1 [Compound 524]', 'IC50', '> 10000 nM'),
  ('CNc1cc(-c2cc(F)c3nc(C)cn3c2)cc2ncn(C3CCNCC3)c(=O)c12 [Compound 358]', 'IC50', '1000 to 10000 nM'),
  ('CN1CCN(c2ccc3c(=O)n(-c4ccc5cn(C)nc5c4)cnc3c2)CC1 [Compound 178]', 'IC50', '> 10000 nM'),
  ('Cc1cn2cc(-c3cc(F)c4c(=O)n([C@H]5CNC[C@@H]5F)ccc4c3)cc(F)c2n1 [Compound 644]', 'IC50', '> 10000 nM'),
  ('Cc1c(O)c(-c2ncc3c(=O)n(C4CCNC4)ccc3n2)cc2cn(C)nc12 (stereo in doubt) [Compound 1439]', 'IC50', '1000 to 10000 nM'),
  ('Cc1cn2cc(-c3cc(F)c4c(=O)n([C@H]5CCNC[C@H]5F)cnc4c3)cc(F)c2n1 [Compound 338]', 'IC50', '1000 to 10000 nM'),
  ('CNc1cc(-c2cc(C)c3nc(C)cn3n2)cc2ncn(C3CCNCC3)c(=O)c12 [Compound 359]', 'IC50', '100 to 1000 nM'),
  ('Cc1c(O)c(-c2ncc3c(=O)n(C4CC5CC4CN5)ccc3n2)cc2cn(C)nc12 (centres unmarked) [Compound 1325]', 'IC50', '100 to 1000 nM'),
  ('Cn1ccc2nn(-c3ccc4c(=O)n(C5CCNCC5)ccc4c3)cc2c1=O [Compound 522]', 'IC50', '> 10000 nM'),
  ('Cn1cc2cc(-c3ccc4c(=O)n([C@H]5CCNC5)ccc4n3)c(O)c(F)c2n1 [Compound 1451]', 'IC50', '100 to 1000 nM'),
  ('Cc1cn2cc(-c3ccc4c(=O)n(C5CCNCC5)cnc4c3)cc(F)c2n1 [Compound 205]', 'IC50', '100 to 1000 nM'),
  ('Cc1cn2cc(-c3cc(F)c4c(=O)n(C5CCOCC5)cnc4c3)cc(C#N)c2n1 [Compound 367]', 'IC50', '100 to 1000 nM'),
  ('Cc1cn2nc(-c3cc(F)c4c(=O)n(C5CCN(C)CC5)cnc4c3)cc(C)c2n1 [Compound 242]', 'IC50', '< 100 nM'),
  ('Cc1cc(-c2cc3ccn(C4CCN(CCO)CC4)c(=O)c3cn2)cc2cn(C)nc12 [Compound 1210]', 'IC50', '1000 to 10000 nM'),
  ('Cn1cc2cc(-c3ccc4c(=O)n(C5CCNC6(CC6)C5)ccc4n3)c(O)cc2n1 (centres unmarked) [Compound 1242]', 'IC50', '< 100 nM'),
  ('Cc1cn2nc(-c3ccc4c(=O)n([C@@H]5CCNC6(CC6)C5)cnc4c3)cc(C)c2n1 [Compound 444]', 'IC50', '< 100 nM'),
  ('Cc1cn2nc(-c3ccc4c(c3)CCN(C3CCN(C)C3)C4=O)cc(C)c2n1 (centres unmarked) [Compound 282]', 'IC50', '> 10000 nM'),
  ('Cc1nc2c(o1)CN(c1cc(F)c3c(=O)n(C4CCNCC4)cnc3c1)CC2 [Compound 508, trifluoroacetic acid]', 'IC50', '> 10000 nM'),
  ('Cc1cn2nc(-c3cc(C#N)c4c(=O)n(C5CCNC6(CC6)C5)ccc4c3)cc(C)c2n1 (centres unmarked) [Compound 387]', 'IC50', '< 100 nM'),
  ('COc1cc(-c2cc(C)c3nc(C)cn3n2)cc2ccn(C3CCNCC3)c(=O)c12 [Compound 399]', 'IC50', '100 to 1000 nM'),
  ('Cc1cn2cc(-c3cc(F)c4c(=O)n([C@@H]5CCNC5)ccc4c3)cc(F)c2n1 (single isomer, unassigned) [Compound 395]', 'IC50', '100 to 1000 nM');
